I'd be grateful if you could share measured Population Mitochondria Different-Phenotype (%) for these entries.
Test system: U2OS
Test: Multiplex assay against U2OS
Type: toxicity, cell-based
Details: human, 48 h, 10 µM, compound concentration 10 uM, replicate 1
Numeric only. Scale: %

Input: Enter reported Population Mitochondria Different-Phenotype (%) observed with U2OS for COc1cccc2c1c(NS(=O)(=O)c1ccc(Cl)s1)nn2Cc1cccc(CNC(=O)C(C)(C)O)c1
Output: 2

Input: # value lookup — system U2OS, readout Population Mitochondria Different-Phenotype (%), item Cc1onc(-c2ccccc2Cl)c1C(=O)N(C)c1ccc(Cl)cc1
Output: 5

Input: Entry Cc1cccc(NC(=O)CN2CCC(c3ccccn3)CC2)c1.Cl.Cl , system U2OS: what Population Mitochondria Different-Phenotype (%) was measured?
Output: 6

Input: Field: Population Mitochondria Different-Phenotype (%) (U2OS). Entry: CCCCCC(O)/C=C/[C@H]1C(=O)CC(O)C1C/C=C\CCCC(=O)O (some centres undefined)
Output: 3

Input: Lab request: please report Population Mitochondria Different-Phenotype (%) under test system U2OS for COc1ccccc1N1CCN(C[C@@H](C(=O)NC(C)(C)C)c2ccccc2)CC1.Cl.Cl
Output: 30

Input: Could you share what Population Mitochondria Different-Phenotype (%) was measured for CC(C)COc1ccc(CNC(=O)N(Cc2ccc(F)cc2)C2CCN(C)CC2)cc1 [PIMAVANSERIN] , tested on U2OS?
Output: 56

Input: Fill in the recorded Population Mitochondria Different-Phenotype (%) for this compound, with U2OS as test system: O=C1[C@H](Cc2ccc(O)cc2)N2C(=O)CCN(C(=O)NCc3ccccc3)[C@H]2CN1Cc1cccc2ccccc12
Output: 16

Input: Population Mitochondria Different-Phenotype (%) of Cl.NCCc1ccc(O)c(O)c1 [DOPAMINE HYDROCHLORIDE] on U2OS?
Output: 3

Input: Query for U2OS: what Population Mitochondria Different-Phenotype (%) does the record show for CC(C)(C)c1cc(NC(=O)Nc2ccc(-c3cn4c(n3)sc3cc(OCCN5CCOCC5)ccc34)cc2)no1 [QUIZARTINIB] ?
Output: 33

* * *

Tested on: U2OS
Experiment: Multiplex assay against U2OS
Type: toxicity, cell-based
Details: human, 24 h, 10 µM, compound concentration 10 uM, replicate 2
Threshold-based label: Population Mitotic Cells (%) under 10% gives MET, Population Mitotic Cells (%) not under 10% gives NOT MET.

Input: Here's an entry: Cl.N=C(N)NC(=O)Cc1c(Cl)cccc1Cl [GUANFACINE HYDROCHLORIDE] . Is its Population Mitotic Cells (%) below 10%?
Output: NOT MET

Input: Please determine if O=C(CCCc1ccccc1)Nc1nc2ccccc2c(=O)s1 is below 10% in terms of Population Mitotic Cells (%).
Output: MET

Input: Input CN(C)C(=O)Cn1cc(-c2ccc(-c3cncc4ccccc34)cc2)cn1 ; condition: Population Mitotic Cells (%) strictly below 10%. Does it hold?
Output: NOT MET

Input: Does CN[C@@H](C)C(=O)N[C@H](C(=O)N1CCC[C@H]1C(=O)Nc1snnc1-c1ccccc1)C1CCCCC1 have Population Mitotic Cells (%) strictly under 10%?
Output: MET

Input: In the record for COc1cccc2c1c(NS(=O)(=O)c1ccc(Cl)s1)nn2Cc1cccc(CNC(=O)C(C)(C)O)c1 , is Population Mitotic Cells (%) less than 10%?
Output: NOT MET

Input: In the record for N#Cc1cc(F)cc(-c2nc(-c3ccc(F)cn3)no2)c1 , is Population Mitotic Cells (%) less than 10%?
Output: NOT MET

Input: I wonder whether C[C@H](N)COC(=O)[C@@H](CCCCN)NC(=O)Cc1c(-c2ccc3ccccc3c2)[nH]c2c1ccc1ccccc12 has Population Mitotic Cells (%) below 10%. Can you tell?
Output: MET

Input: I'd appreciate it if you could check whether CCCOc1ccc2[nH]cc(C3=CCNCC3)c2n1.Cl has Population Mitotic Cells (%) smaller than 10%.
Output: NOT MET
